system: NCI-H1944; experiment: normalised cell viability (NPI; 0 = phenylarsine oxide control, 1 = DMSO control) (fraction of DMSO control); NCI-H1944 is a non-small cell lung cancer line; higher = more viable cells (less compound toxicity); conditions: glucocorticoid arm: vehicle; compound 1 µM; 6 days;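 further: CTB read-out in 384-well plates, triplicate wells, NPI normalised per plate against 1 µM phenylarsine oxide (0) and 0.1% DMSO (1) controls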
Structures can show the parent of a compound that is named as a salt. The full ranking holds about 1,900 compounds; the median of “normalised cell viability (NPI; 0 = phenylarsine oxide control, 1 = DMSO control)” is about 1, and the lowest 2% start at about 0.039. Many of the other results were omitted from the sample, so the lowest values are more common in it than they were.
Documented normalised cell viability across a set of compounds
Please give the numeric answer without any surrounding text.

Worked examples, 5 compounds total:
Report normalised cell viability for CCCN1CCC[C@@H]2Cc3n[nH]cc3C[C@H]21 [(-)-Quinpirole hydrochloride]
0.985

Quick one: give measured normalised cell viability for C=CCN1CC[C@]23CCCC[C@H]2[C@H]1Cc1ccc(O)cc13 [Levallorphan tartrate]
0.992

Assign normalised cell viability to the following record: C[Se]C[C@H](N)C(=O)O [Se-(methyl)selenocysteine hydrochloride]
1.01

Indicate its recorded normalised cell viability; the compound in question is N[C@H](C(=O)O)c1cc(O)no1 (racemic) [(±)-Ibotenic acid]
0.984

Provide only the value of recorded normalised cell viability for C[C@@]12N[C@@H](Cc3ccccc31)c1ccccc12 [(-)-MK 801 Maleate]
1.01

Further cases:
Consider the compound CN[C@@H]1C[C@@H](c2ccc(Cl)c(Cl)c2)c2ccccc21 [Indatraline hydrochloride] and give its recorded normalised cell viability.
1.01

Tell me measured normalised cell viability for CCCN(CCC)C1CCc2cccc(O)c2C1 (racemic) [(±)-8-Hydroxy-DPAT hydrobromide] please.
0.997
